% L-phenylalanine at 300 μM (average), calcium mobilization for assorted compounds
# assayed_system: GPR139 (Homo sapiens)
# Sequence (Q6DWJ6 whole entry): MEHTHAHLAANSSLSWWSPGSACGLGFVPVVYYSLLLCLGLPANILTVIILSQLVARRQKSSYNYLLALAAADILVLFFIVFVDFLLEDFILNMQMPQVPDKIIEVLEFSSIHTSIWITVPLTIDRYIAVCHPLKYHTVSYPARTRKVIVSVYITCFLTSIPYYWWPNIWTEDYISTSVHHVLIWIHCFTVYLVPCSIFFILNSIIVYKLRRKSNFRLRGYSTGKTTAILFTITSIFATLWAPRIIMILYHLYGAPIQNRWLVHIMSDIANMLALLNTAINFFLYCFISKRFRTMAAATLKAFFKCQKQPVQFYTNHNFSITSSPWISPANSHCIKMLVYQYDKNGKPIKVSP
# method_description: Calcium mobilization assay (FLIPR), GPR139 expressed in HEK293 cells
# Type: cell-based
# Set-up: expressed in transfected cells; host or cells: HEK293 (transient)
# test_conditions: 300 μM; calcium mobilization as percentage of that observed for L-phenylalanine
measure: % L-phenylalanine at 300 μM (average), calcium mobilization (% L-phenylalanine)

| given_smiles | assayed_system | result_value |
| --- | --- | --- |
| CC(C)(C)OC(=O)N1Cc2ccccc2C[C@@H]1C(=O)O | GPR139 (Homo sapiens) | 155 |
| O=C(O)[C@@H]1Cc2c([nH]c3ccccc23)CN1 | GPR139 (Homo sapiens) | 151 |
| N[C@@H](Cc1ccc(Br)s1)C(=O)O | GPR139 (Homo sapiens) | 151 |
| N[C@H](CCc1ccccc1)C(=O)O | GPR139 (Homo sapiens) | 105 |
